Target: human GHSR1a (Homo sapiens, UniProt Q92847)
Construct: expressed in transfected cells; host or cells: HEK293 Tetracycline-Inducible cell line, used as membranes
Sequence (Q92847 whole entry): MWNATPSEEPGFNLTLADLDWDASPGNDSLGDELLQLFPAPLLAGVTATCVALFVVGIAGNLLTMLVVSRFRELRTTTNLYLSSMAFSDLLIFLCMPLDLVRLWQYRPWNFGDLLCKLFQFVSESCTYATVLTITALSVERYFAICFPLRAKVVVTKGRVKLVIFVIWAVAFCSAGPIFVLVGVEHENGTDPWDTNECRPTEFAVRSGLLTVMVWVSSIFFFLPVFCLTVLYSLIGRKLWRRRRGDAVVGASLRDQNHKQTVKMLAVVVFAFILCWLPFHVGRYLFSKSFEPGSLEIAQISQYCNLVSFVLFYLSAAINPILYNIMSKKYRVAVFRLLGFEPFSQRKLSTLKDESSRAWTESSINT
Assay: Human Ghrelin SPA Binding Assay
Description: The SPA format was utilized for high throughput screening of test compounds and filter binding served for more comprehensive binding characterization. Human Ghrelin SPA Binding Assay
Recorded Ki for the following compounds

compound	Ki
Cc1cc(-c2ccc3c(c2)CC[C@H]3N2CC3(CCN(C(=O)Cc4cn5c(C)c(C)sc5n4)CC3)C2)ncn1	30.3 nM
CCc1cnc(-c2ccc3c(c2)CC[C@H]3N2CC3(CCN(C(=O)Cc4ccc(OC)cc4)CC3)C2)nc1	14.8 nM
Cc1cc(-c2ccc3c(c2)CC[C@H]3N2CC3(CCN(C(=O)Cc4cn5nccnc5n4)CC3)C2)ncn1	440 nM
Cc1nn2cc(CC(=O)N3CCC4(CC3)CN([C@@H]3CCc5cc(-c6ncccn6)ccc53)C4)nc2s1	28.1 nM
O=C(Cc1ccc(C2CC2)cc1)N1CCC2(CC1)CN([C@@H]1CCc3cc(-c4ncccn4)ccc31)C2	3.77 nM
COc1ccc(CC(=O)N2CCC3(CC2)CN([C@@H]2CCc4cc(-n5cc(C)cn5)ccc42)C3)cc1	8.97 nM
COc1ccc(CC(=O)N2CCC3(CC2)CN([C@@H]2CCc4cc(-n5nccn5)ccc42)C3)c(NC(C)=O)c1	19.4 nM
COc1ccc(CC(=O)N2CCC3(CC2)CN([C@@H]2CCc4cc(-c5cc(C(N)=O)ncn5)ccc42)C3)nc1 [Example 10D]	82.9 nM
CCOc1ccc(CC(=O)N2CCC3(CC2)CN([C@@H]2CCc4cc(-n5nccn5)ccc42)C3)nc1	34.4 nM
Cc1cc(-c2ccc3c(c2)CC[C@H]3N2CC3(CCN(C(=O)Cc4cn5nc(C)sc5n4)CC3)C2)nc(C)n1	15.1 nM
COc1ccc(CC(=O)N2CCC3(CC2)CN([C@@H]2CCc4cc(-n5cncn5)ccc42)C3)nc1	417 nM
Cc1ccn2cc(CC(=O)N3CCC4(CC3)CN([C@@H]3CCc5cc(-c6ccc(C(N)=O)nc6)ccc53)C4)nc2c1	20.2 nM
COc1ccc(CC(=O)N2CCC3(CC2)CN(C2CCc4cc(-c5nccs5)ccc42)C3)nc1 (racemic) [Example 1F]	22.8 nM
O=C(Cc1n[nH]c2ccccc12)N1CCC2(CC1)CN(C1CCc3cc(-c4ncccn4)ccc31)C2 (stereo not drawn)	14.2 nM
Cc1cn2cc(CC(=O)N3CCC4(CC3)CN(C3CCc5cc(-c6ncccn6)ccc53)C4)nc2s1 (stereo not drawn)	4.59 nM

====

target: human GHSR1a (Homo sapiens, UniProt Q92847); construct: expressed in transfected cells; host or cells: HEK293 Tetracycline-Inducible cell line, used as membranes; assay: Human Ghrelin SPA Binding Assay
pIC50: −log10 of the molar value.
measure: pIC50

molecule	study-system	endpoint-result
O=C(Cc1ccc2c(n1)OCCO2)N1CCC2(CC1)CN([C@@H]1CCc3cc(-c4ncccn4)ccc31)C2	human GHSR1a (Homo sapiens, UniProt Q92847)	7.59
O=C(Cc1cn(-c2ccccc2)cn1)N1CCC2(CC1)CN([C@@H]1CCc3cc(-c4ncccn4)ccc31)C2	human GHSR1a (Homo sapiens, UniProt Q92847)	6.64
CCc1ccc(CC(=O)N2CCC3(CC2)CN([C@@H]2CCc4cc(-c5cnc(C(N)=O)cn5)ccc42)C3)nc1 [Example 10H]	human GHSR1a (Homo sapiens, UniProt Q92847)	6.85
CCn1ccc(CC(=O)N2CCC3(CC2)CN([C@@H]2CCc4cc(-c5ncccn5)ccc42)C3)n1	human GHSR1a (Homo sapiens, UniProt Q92847)	6.84
O=C(Cc1ccc(C2CC2)cc1)N1CCC2(CC1)CN(C1CCc3cc(-c4ncccn4)ccc31)C2 (racemic)	human GHSR1a (Homo sapiens, UniProt Q92847)	8.15

====

Recorded Ki for the following compounds
biological target: human GHSR1a (Homo sapiens, UniProt Q92847); construct: expressed in transfected cells; host or cells: HEK293 Tetracycline-Inducible cell line, used as membranes; assay: Human Ghrelin SPA Binding Assay; conditions: SPA format, [125I] ghrelin displacement, human GHSR1a membranes; Ki=IC50/(1+[ligand]/Kd)

compound	Ki, nM
COc1ccc(CC(=O)N2CCC3(CC2)CN([C@@H]2CCc4cc(-c5ncc(C)cn5)ccc42)C3)nc1 [Example 3H]	9.17
Cc1ccc(CC(=O)N2CCC3(CC2)CN([C@@H]2CCc4cc(-n5nccn5)ccc42)C3)nc1 [Example 5C]	10.5
CCc1ccc(CC(=O)N2CCC3(CC2)CN([C@@H]2CCc4cc(-n5nccn5)ccc42)C3)nc1 [Example 5D]	16.1
CCc1cnc(-c2ccc3c(c2)CC[C@H]3N2CC3(CCN(C(=O)Cc4ccc(OC)cn4)CC3)C2)nc1 [Example 3A]	9.03

====

target: human GHSR1a (Homo sapiens, UniProt Q92847); construct: expressed in transfected cells; host or cells: HEK293 Tetracycline-Inducible cell line, used as membranes; test: Human Ghrelin SPA Binding Assay
pKi: −log10 of the molar value.
measure: pKi

molecule	study-system	measure	endpoint-result
O=C(Cc1ccc(C2CC2)cn1)N1CCC2(CC1)CN([C@@H]1CCc3cc(-c4ncccn4)ccc31)C2 [Example 3AF]	human GHSR1a (Homo sapiens, UniProt Q92847)	pKi	8.21
COc1ccc(CC(=O)N2CCC3(CC2)CN([C@@H]2CCc4cc(-n5nccn5)ccc42)C3)cc1 [Example 6E]	human GHSR1a (Homo sapiens, UniProt Q92847)	pKi	8.51
COc1ccc(CC(=O)N2CCC3(CC2)CN([C@@H]2CCc4cc(-c5ccc(C(N)=O)cc5)ccc42)C3)nc1 [Example 4D]	human GHSR1a (Homo sapiens, UniProt Q92847)	pKi	7.76
Cc1ccn2cc(CC(=O)N3CCC4(CC3)CN([C@@H]3CCc5cc(-c6ccc(C(N)=O)cc6)ccc53)C4)nc2c1 [Example 4A]	human GHSR1a (Homo sapiens, UniProt Q92847)	pKi	8.10
COc1ccc(CC(=O)N2CCC3(CC2)CN(C2CCc4cc(-c5cc(C#N)ccn5)ccc42)C3)nc1 (racemic) [Example 2C]	human GHSR1a (Homo sapiens, UniProt Q92847)	pKi	7.42
COc1ccc(CC(=O)N2CCC3(CC2)CN(C2CCc4cc(Oc5ccccc5)ccc42)C3)nc1 (racemic) [Example 1I]	human GHSR1a (Homo sapiens, UniProt Q92847)	pKi	7.53
COc1ccc(CC(=O)N2CCC3(CC2)CN([C@@H]2CCc4cc(-n5cc(C)cn5)ccc42)C3)nc1 [Example 8A]	human GHSR1a (Homo sapiens, UniProt Q92847)	pKi	7.61
COc1ccc(CC(=O)N2CCC3(CC2)CN([C@@H]2CCc4cc(-c5ccc(C(N)=O)nc5)ccc42)C3)nc1 [Example 9B]	human GHSR1a (Homo sapiens, UniProt Q92847)	pKi	7.32
CCc1ccc(CC(=O)N2CCC3(CC2)CN([C@@H]2CCc4cc(-c5cnc(C(N)=O)cn5)ccc42)C3)nc1 [Example 10H]	human GHSR1a (Homo sapiens, UniProt Q92847)	pKi	6.91
Cc1ccc(CC(=O)N2CCC3(CC2)CN([C@@H]2CCc4cc(-c5ncccn5)ccc42)C3)cc1 [Example 5E]	human GHSR1a (Homo sapiens, UniProt Q92847)	pKi	7.81

====

molecular target: human GHSR1a (Homo sapiens); construct: expressed in transfected cells; host or cells: HEK293 Tetracycline-Inducible cell line, used as membranes; experiment: Human Ghrelin SPA Binding Assay
pIC50: −log10 of the molar value.

compound	pIC50
Cc1cc(-c2ccc3c(c2)CC[C@H]3N2CC3(CCN(C(=O)Cc4cn5c(C)c(C)sc5n4)CC3)C2)ncn1 [Example 3AR]	7.47
Cc1ccc(CC(=O)N2CCC3(CC2)CN([C@@H]2CCc4cc(-c5ncccn5)ccc42)C3)cc1 [Example 5E]	7.73
COc1ccc(CC(=O)N2CCC3(CC2)CN([C@@H]2CCc4cc(-c5ccncn5)ccc42)C3)nc1 [Example 3AE]	7.14
COc1ccc(CC(=O)N2CCC3(CC2)CN([C@@H]2CCc4cc(-c5nnc(C)s5)ccc42)C3)nc1 [Example 6J]	6.49
Cc1ccn2cc(CC(=O)N3CCC4(CC3)CN([C@@H]3CCc5cc(-c6cc(C(N)=O)ncn6)ccc53)C4)nc2c1 [Example 10G]	7.22
Cc1cn2cc(CC(=O)N3CCC4(CC3)CN([C@@H]3CCc5cc(-c6ccc(C(N)=O)nc6)ccc53)C4)nc2s1 [Example 9D]	7.91
COc1ccc(CC(=O)N2CCC3(CC2)CN(C2CCc4cc(-c5cnccn5)ccc42)C3)nc1 (racemic) [Example 2H]	7.04
COc1ccc(CC(=O)N2CCC3(CC2)CN(C2CCc4cc(-c5cc(C)ccn5)ccc42)C3)nc1 (racemic) [Example 2G]	8.21
COc1ccc(CC(=O)N2CCC3(CC2)CN([C@@H]2CCc4cc(-c5ncccn5)ccc42)C3)nc1 [Example 3G]	7.67
